Recorded inhibition values for a group of molecules are listed next.
Target or system: Neuronal acetylcholine receptor; alpha4/beta2 (Rattus norvegicus) (UniProt P09483+P12390)
Experimental protocol: Displacement of [3H]-epibatidine from alpha4beta2 nAChR in rat cortical membranes at 5 uM after 2 hrs by liquid scintillation counting
Type: cell membranes
Study conditions: Membrane
Give the quantity in %, number only.

{"Molecule": "c1ccc(C2=NC3(CN2)CN2CCC3CC2)cc1 (stereo not given)", "Value": 11}
{"Molecule": "COc1cccc(C2=NCC3(CN4CCC3CC4)NC(=O)C2)c1 (stereo not given)", "Value": 12}
{"Molecule": "O=C1NCC2(CN3CCC2CC3)NC(=O)C1c1ccccc1 (stereo not given)", "Value": 2}
{"Molecule": "O=C1CC(c2ccco2)=NCC2(CN3CCC2CC3)N1 (stereo not given)", "Value": 14}

// field: inhibition; key: `COc1cc(O)ccc1/C=C1\CCCN=C1c1cccnc1` ; value = 97

Field inhibition (entry O=C1CC(c2cccs2)=NCC2(CN3CCC2CC3)N1 (stereo not given) ) reads 20

Input C1=NCC2(CN3CCC2CC3)NC=C1c1ccccc1 (stereo not given) . Output inhibition: 6

The molecule O=C1CC(c2ccc(Br)s2)=NCC2(CN3CCC2CC3)N1 (stereo not given) showed inhibition equal to 62

For this molecule ( Nc1c(C2=NC3(CN2)CN2CCC3CC2)oc2ccccc12 (stereo not given) ), measured inhibition is 9

Consider Oc1ccccc1C1=NC2(CN1)CN1CCC2CC1 (stereo not given) . Its measured inhibition is 4

So, c1ccc2oc(C3=NC4(CN3)CN3CCC4CC3)cc2c1 (stereo not given) ? Its inhibition was 4

###

Target or system: Neuronal acetylcholine receptor subunit alpha-7 (Rattus norvegicus)
Sequence (Q05941 whole entry): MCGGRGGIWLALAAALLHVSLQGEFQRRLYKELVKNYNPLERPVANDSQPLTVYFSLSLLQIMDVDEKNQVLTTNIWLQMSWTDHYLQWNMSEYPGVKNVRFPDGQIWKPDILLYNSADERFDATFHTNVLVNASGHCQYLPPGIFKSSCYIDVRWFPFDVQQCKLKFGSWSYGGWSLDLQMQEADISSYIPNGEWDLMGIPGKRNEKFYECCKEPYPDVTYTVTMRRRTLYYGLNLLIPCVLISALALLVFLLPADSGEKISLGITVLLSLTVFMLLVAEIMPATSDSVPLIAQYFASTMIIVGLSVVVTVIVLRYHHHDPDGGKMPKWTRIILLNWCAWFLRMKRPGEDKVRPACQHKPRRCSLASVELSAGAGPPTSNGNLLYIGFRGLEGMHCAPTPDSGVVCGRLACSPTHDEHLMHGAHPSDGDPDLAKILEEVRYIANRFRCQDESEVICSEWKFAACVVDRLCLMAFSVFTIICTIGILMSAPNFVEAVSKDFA
Experimental protocol: Agonist activity at rat recombinant alpha7 nAChR expressed in GH4C1 cells by patch clamp technique
Quantity kind: EC50

Query Nc1c(C2=NC3(CN2)CN2CCC3CC2)oc2ccccc12 (stereo unspecified) yields EC50 of 1200 nM

###

The next entries give measured Kd for UniProtKB P58154.
Sequence (P58154 whole entry): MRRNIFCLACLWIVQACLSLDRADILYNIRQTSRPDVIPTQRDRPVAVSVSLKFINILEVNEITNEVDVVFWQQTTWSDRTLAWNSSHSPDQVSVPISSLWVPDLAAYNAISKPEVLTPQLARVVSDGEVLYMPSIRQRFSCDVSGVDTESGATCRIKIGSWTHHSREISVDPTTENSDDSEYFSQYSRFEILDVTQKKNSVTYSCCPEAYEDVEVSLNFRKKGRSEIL

Below are worked cases with known answers.
{"Smiles text": "COc1ccc(/C=C2\\CCCN=C2c2cccnc2)c(OC)c1", "Target or system": "UniProtKB P58154", "Quantity kind": "Kd", "Value": "19 nM"}
{"Smiles text": "Nc1ccc(/C=C2\\CCCN=C2c2cccnc2)cc1", "Target or system": "UniProtKB P58154", "Quantity kind": "Kd", "Value": "0.8 nM"}
{"Smiles text": "COc1cc(O)ccc1/C=C1\\CCCN=C1c1cccnc1", "Target or system": "UniProtKB P58154", "Quantity kind": "Kd", "Value": "0.4 nM"}

Entry `Oc1ccc(/C=C2\CCCN=C2c2cccnc2)c(O)c1` , tested on UniProtKB P58154, has a reported Kd of 0.8 nM

###

Target or system: Neuronal acetylcholine receptor; alpha3/beta4 (Homo sapiens, UniProt P30926+P32297)
Sequence (P30926 whole entry): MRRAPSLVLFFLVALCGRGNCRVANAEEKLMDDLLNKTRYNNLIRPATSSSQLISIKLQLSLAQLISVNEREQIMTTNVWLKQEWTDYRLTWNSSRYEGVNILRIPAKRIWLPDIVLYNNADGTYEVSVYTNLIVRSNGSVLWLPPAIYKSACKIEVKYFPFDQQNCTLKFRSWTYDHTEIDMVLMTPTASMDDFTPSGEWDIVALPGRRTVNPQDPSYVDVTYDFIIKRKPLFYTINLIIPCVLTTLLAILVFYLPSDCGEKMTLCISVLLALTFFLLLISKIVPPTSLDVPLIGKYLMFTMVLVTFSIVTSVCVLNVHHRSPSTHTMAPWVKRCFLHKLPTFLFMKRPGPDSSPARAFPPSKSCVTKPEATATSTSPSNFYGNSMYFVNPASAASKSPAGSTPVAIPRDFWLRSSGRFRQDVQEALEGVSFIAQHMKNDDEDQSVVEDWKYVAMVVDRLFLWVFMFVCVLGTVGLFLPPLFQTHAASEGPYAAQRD
Sequence (P32297 whole entry): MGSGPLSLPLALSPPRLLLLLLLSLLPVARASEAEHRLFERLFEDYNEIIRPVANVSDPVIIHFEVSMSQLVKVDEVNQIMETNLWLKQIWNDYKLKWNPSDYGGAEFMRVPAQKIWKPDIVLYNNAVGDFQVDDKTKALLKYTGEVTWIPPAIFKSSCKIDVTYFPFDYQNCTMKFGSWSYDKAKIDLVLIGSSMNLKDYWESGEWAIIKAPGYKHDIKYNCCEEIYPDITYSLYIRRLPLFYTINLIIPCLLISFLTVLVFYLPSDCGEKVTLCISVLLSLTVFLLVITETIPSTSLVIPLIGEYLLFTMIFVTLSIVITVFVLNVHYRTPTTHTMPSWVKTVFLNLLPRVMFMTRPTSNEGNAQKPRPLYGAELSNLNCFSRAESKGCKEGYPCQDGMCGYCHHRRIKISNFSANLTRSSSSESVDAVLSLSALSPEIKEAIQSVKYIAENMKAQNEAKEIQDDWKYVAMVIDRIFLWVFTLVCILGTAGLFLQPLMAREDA
Experimental protocol: Displacement of [3H]-epibatidine from alpha3beta4 nAChR in human SH-SY5Y cellular membranes after 2 hrs by liquid scintillation counting
Quantity kind: pKi
pKi field: float, defined as -log10 of concentration (mol/L).

{"Smiles text": "COc1ccc(/C=C2\\CCCN=C2c2cccnc2)c(OC)c1", "Value": 5.60}

Now, please, on to the next molecule.
For record `COc1cc(O)ccc1/C=C1\CCCN=C1c1cccnc1` the listed pKi is 6.01
